System: 653999-131-R-J2-PDC complex spheroids, growth inhibition
Assay: Anticancer human tumor 653999-131-R-J2-PDC patient-derived lung adenocarcinoma cell line growth inhibition [RAS]; active = viability on the fitted dose curve at most 10% of control; inactive = the rest
Settings: second compound 10 µM; first compound 0.1 µM
Outcomes: active, inactive

- MOLECULE: "CC(C)n1nc(-c2ccc3oc(N)nc3c2)c2c(N)ncnc21 + C#Cc1c(F)ccc2cc(O)cc(-c3ncc4c(N5CC6CCC(C5)N6)nc(OCC56CCCN5CC(F)C6)nc4c3F)c12"
  CLASS_LABEL: "active"
- MOLECULE: "CC(=O)OC12COC1CC(O)C1(C)C(=O)C(O)C3=C(C)C(OC(=O)C(O)C(NC(=O)OC(C)(C)C)c4ccccc4)CC(O)(C(OC(=O)c4ccccc4)C21)C3(C)C (stereo not given) + C#Cc1c(F)ccc2cc(O)cc(-c3ncc4c(N5CC6CCC(C5)N6)nc(OCC56CCCN5CC(F)C6)nc4c3F)c12"
  CLASS_LABEL: "inactive"
- MOLECULE: "C=CC(=O)N1CCN(c2nc(OCC3CCCN3C)nc3c(F)c(-c4nc(N)cc(C)c4C(F)(F)F)c(Cl)cc23)C(C)C1 (stereo not given) + C#Cc1c(F)ccc2cc(O)cc(-c3ncc4c(N5CC6CCC(C5)N6)nc(OCC56CCCN5CC(F)C6)nc4c3F)c12"
  CLASS_LABEL: "inactive"
- MOLECULE: "C=CC(=O)Nc1cc(Nc2nccc(-c3cn(C)c4ccccc34)n2)c(OC)cc1N(C)CCN(C)C + C#Cc1c(F)ccc2cc(O)cc(-c3ncc4c(N5CC6CCC(C5)N6)nc(OCC56CCCN5CC(F)C6)nc4c3F)c12"
  CLASS_LABEL: "inactive"
- MOLECULE: "CCN1CCN(Cc2ccc(Nc3ncc(F)c(-c4cc(F)c5nc(C)n(C(C)C)c5c4)n3)nc2)CC1 + C#Cc1c(F)ccc2cc(O)cc(-c3ncc4c(N5CC6CCC(C5)N6)nc(OCC56CCCN5CC(F)C6)nc4c3F)c12"
  CLASS_LABEL: "inactive"

---

Tested on: 653999-131-R-J2-PDC complex spheroids, growth inhibition
Test: Anticancer human tumor 653999-131-R-J2-PDC cell line growth inhibition [RAS];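 note: spheroids exposed to the agents for seven days before the readout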
Conditions: compound 0.316 µM; stronger effect = lower value

- MOLECULE: "NC1c2ccccc2OC12CCN(c1cnc3c(N4CCCc5ncccc54)n[nH]c3n1)CC2 (stereo not drawn)"
  viability, T/C: "75.5% [middle of 4 runs]"
- MOLECULE: "CCC(CC)c1cc(NC2CCC(N)C2)n2nccc2n1 (stereo not drawn)"
  viability, T/C: "120% [middle of 4 runs]"
- MOLECULE: "CC(Nc1ccc2c(c1)OCCn1cc(N3C(=O)OCC3C(F)F)nc1-2)C(N)=O (stereo not drawn)"
  viability, T/C: "57.4% [middle of 4 runs]"
- MOLECULE: "CC(=O)OC12COC1CC(O)C1(C)C(=O)C(O)C3=C(C)C(OC(=O)C(O)C(NC(=O)OC(C)(C)C)c4ccccc4)CC(O)(C(OC(=O)c4ccccc4)C21)C3(C)C (stereo not drawn)"
  viability, T/C: "55.9% [middle of 4 runs]"
- MOLECULE: "CCN1CCN(Cc2ccc(Nc3ncc(F)c(-c4cc(F)c5nc(C)n(C(C)C)c5c4)n3)nc2)CC1"
  viability, T/C: "80.7% [middle of 4 runs]"
- MOLECULE: "CC(C)NCC(C(=O)N1CCN(c2ncnc3c2C(C)CC3O)CC1)c1ccc(Cl)cc1 (stereo not drawn)"
  viability, T/C: "77.1% [middle of 4 runs]"
- MOLECULE: "C#Cc1c(F)ccc2cc(O)cc(-c3ncc4c(N5CC6CCC(C5)N6)nc(OCC56CCCN5CC(F)C6)nc4c3F)c12 (stereo not drawn)"
  viability, T/C: "71.2% [middle of 8 runs]"
- MOLECULE: "CC1(O)CCCC1n1c(=O)c(C(F)F)cc2cnc(NC3CCN(S(C)(=O)=O)CC3)nc21 (stereo not drawn)"
  viability, T/C: "65.3% [middle of 4 runs]"

---

Measured IC50 of individual entries
Tested on: 653999-131-R-J2-PDC complex spheroids, growth inhibition
Test: Anticancer human tumor 653999-131-R-J2-PDC cell line growth inhibition [RAS];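 note: spheroids exposed to the agents for seven days before the readout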
Settings: curve of first compound; second compound 0.1 µM

- MOLECULE: "O=C(c1ccc(F)c(F)c1Nc1ccc(I)cc1F)N1CC(O)([C@@H]2CCCCN2)C1 + C#Cc1c(F)ccc2cc(O)cc(-c3ncc4c(N5CC6CCC(C5)N6)nc(OCC56CCCN5CC(F)C6)nc4c3F)c12"
  RESULT_OPERATOR: "="
  IC50 (nM): 54.7
- MOLECULE: "C=CC(=O)Nc1cc(Nc2nccc(-c3cn(C)c4ccccc34)n2)c(OC)cc1N(C)CCN(C)C + C#Cc1c(F)ccc2cc(O)cc(-c3ncc4c(N5CC6CCC(C5)N6)nc(OCC56CCCN5CC(F)C6)nc4c3F)c12"
  RESULT_OPERATOR: "="
  IC50 (nM): 613
- MOLECULE: "C[C@@H](NC(=O)c1ncnc(N)c1Cl)c1ncc(C(=O)Nc2cc(C(F)(F)F)c(Cl)cn2)s1 + C=CC(=O)N1CCN(c2nc(OCC3CCCN3C)nc3c(F)c(-c4nc(N)cc(C)c4C(F)(F)F)c(Cl)cc23)C(C)C1"
  RESULT_OPERATOR: ">"
  IC50 (nM): 10000
- MOLECULE: "CC(Nc1ccc2c(c1)OCCn1cc(N3C(=O)OCC3C(F)F)nc1-2)C(N)=O (stereo not given) + C#Cc1c(F)ccc2cc(O)cc(-c3ncc4c(N5CC6CCC(C5)N6)nc(OCC56CCCN5CC(F)C6)nc4c3F)c12"
  RESULT_OPERATOR: "="
  IC50 (nM): 273
- MOLECULE: "Nc1ccn(C2OC(CO)C(O)C2(F)F)c(=O)n1 (stereo not given) + C=CC(=O)N1CCN(c2nc(OCC3CCCN3C)nc3c(F)c(-c4nc(N)cc(C)c4C(F)(F)F)c(Cl)cc23)C(C)C1"
  RESULT_OPERATOR: "="
  IC50 (nM): 47.2
- MOLECULE: "CC(C)NCC(C(=O)N1CCN(c2ncnc3c2C(C)CC3O)CC1)c1ccc(Cl)cc1 (stereo not given) + C#Cc1c(F)ccc2cc(O)cc(-c3ncc4c(N5CC6CCC(C5)N6)nc(OCC56CCCN5CC(F)C6)nc4c3F)c12"
  RESULT_OPERATOR: "="
  IC50 (nM): 593
- MOLECULE: "Cc1nc(N2CCC3(CC2)COC(C)C3N)c(CO)nc1Sc1ccnc(N)c1Cl (stereo not given) + C#Cc1c(F)ccc2cc(O)cc(-c3ncc4c(N5CC6CCC(C5)N6)nc(OCC56CCCN5CC(F)C6)nc4c3F)c12"
  RESULT_OPERATOR: ">"
  IC50 (nM): 10000
- MOLECULE: "CCc1c2c(nc3ccc(O)cc13)-c1cc3c(c(=O)n1C2)COC(=O)[C@]3(O)CC + C#Cc1c(F)ccc2cc(O)cc(-c3ncc4c(N5CC6CCC(C5)N6)nc(OCC56CCCN5CC(F)C6)nc4c3F)c12"
  RESULT_OPERATOR: "="
  IC50 (nM): 7.98
- MOLECULE: "Cc1nc(N2CCC3(CC2)COC(C)C3N)c(CO)nc1Sc1ccnc(N)c1Cl (stereo not given) + C=CC(=O)N1CCN(c2nc(OCC3CCCN3C)nc3c(F)c(-c4nc(N)cc(C)c4C(F)(F)F)c(Cl)cc23)C(C)C1"
  RESULT_OPERATOR: ">"
  IC50 (nM): 10000
- MOLECULE: "CC(=O)OC12COC1CC(O)C1(C)C(=O)C(O)C3=C(C)C(OC(=O)C(O)C(NC(=O)OC(C)(C)C)c4ccccc4)CC(O)(C(OC(=O)c4ccccc4)C21)C3(C)C (stereo not given) + C#Cc1c(F)ccc2cc(O)cc(-c3ncc4c(N5CC6CCC(C5)N6)nc(OCC56CCCN5CC(F)C6)nc4c3F)c12"
  RESULT_OPERATOR: "<"
  IC50 (nM): 31.6

---

Test system: 653999-131-R-J2-PDC complex spheroids, growth inhibition
Assay: Anticancer human tumor 653999-131-R-J2-PDC cell line growth inhibition [RAS];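 note: spheroids exposed to the agents for seven days before the readout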
Details: second compound 0.3 µM; first compound 10 µM; stronger effect = lower value

- MOLECULE: "CC1(O)CCCC1n1c(=O)c(C(F)F)cc2cnc(NC3CCN(S(C)(=O)=O)CC3)nc21 (centres undefined) + CCn1c(-c2cc(N3CCN(C)CC3)cnc2C(C)OC)c2c3cc(ccc31)-c1csc(n1)CC(NC(=O)C1CC1C)C(=O)N1CCCC(N1)C(=O)OCC(C)(C)C2"
  viability, T/C: "21%"
- MOLECULE: "CC(Nc1ccc2c(c1)OCCn1cc(N3C(=O)OCC3C(F)F)nc1-2)C(N)=O (centres undefined) + CCn1c(-c2cccnc2C(C)OC)c2c3cc(ccc31)N1CCOC(CC(NC(=O)C(C(C)C)N(C)C(=O)C3(F)CCN(C(=O)C#CC(C)(C)N(C)C)CC3)C(=O)N3CCCC(N3)C(=O)OCC(C)(C)C2)C1"
  viability, T/C: "18.3%"
- MOLECULE: "NC1c2ccccc2OC12CCN(c1cnc3c(N4CCCc5ncccc54)n[nH]c3n1)CC2 (centres undefined) + CCn1c(-c2cc(N3CCN(C)CC3)cnc2C(C)OC)c2c3cc(ccc31)-c1csc(n1)CC(NC(=O)C1CC1C)C(=O)N1CCCC(N1)C(=O)OCC(C)(C)C2"
  viability, T/C: "4.26%"
- MOLECULE: "Cc1nc(N2CCC3(CC2)COC(C)C3N)c(CO)nc1Sc1ccnc(N)c1Cl (centres undefined) + CCn1c(-c2cccnc2C(C)OC)c2c3cc(ccc31)N1CCOC(CC(NC(=O)C(C(C)C)N(C)C(=O)C3(F)CCN(C(=O)C#CC(C)(C)N(C)C)CC3)C(=O)N3CCCC(N3)C(=O)OCC(C)(C)C2)C1"
  viability, T/C: "81.7%"
